# Assay protocol: Acute toxicity in rats (LD50)
# Type: in vivo, Wistar rats
# Test parameters: rat, in vivo, ip, female rats

Compound: NNC(=O)CCNS(=O)(=O)c1ccccc1 [KH-125, N-benzenesulfonyl-β-alanine hydrazide]
LD50: 2580 mg/kg

----------
# Assay protocol: Acute toxicity in mice (LD50)
# Type: in vivo, ddY mice
# Test parameters: mouse, in vivo, sc, female mice

Compound: NNC(=O)CCNS(=O)(=O)c1ccccc1 [KH-125, N-benzenesulfonyl-β-alanine hydrazide]
LD50: 1440 mg/kg

----------
# Assay protocol: Acute toxicity in mice (LD50)
# Type: in vivo, ddY mice
# Test parameters: mouse, in vivo, ip, female mice
Readout label: LD50 (mg/kg)

Compound: NNC(=O)CCNS(=O)(=O)c1ccccc1 [KH-125, N-benzenesulfonyl-β-alanine hydrazide]
Assay result: 1410

----------
# Assay protocol: Acute toxicity in rats (LD50)
# Assay type: in vivo, Wistar rats
# Test parameters: rat, in vivo, sc, male rats

Compound: NNC(=O)CCNS(=O)(=O)c1ccccc1 [KH-125, N-benzenesulfonyl-β-alanine hydrazide]
LD50: > 4000 mg/kg

----------
# Assay protocol: Acute toxicity in rats (LD50)
# Format: in vivo, Wistar rats
# Test parameters: rat, in vivo, sc, female rats
Readout label: LD50

Compound: NNC(=O)CCNS(=O)(=O)c1ccccc1 [KH-125, N-benzenesulfonyl-β-alanine hydrazide]
Readout label: LD50
Assay result: > 4000 mg/kg

----------
# Assay protocol: Acute toxicity in mice (LD50)
# Type: in vivo, ddY mice
# Test parameters: mouse, in vivo, ip, male mice
Readout label: LD50 (mg/kg)

Compound: NNC(=O)CCNS(=O)(=O)c1ccccc1 [KH-125, N-benzenesulfonyl-β-alanine hydrazide]
Readout label: LD50
Unit abbrev: mg/kg
Assay result: 1230

----------
# Assay protocol: Acute toxicity in mice (LD50)
# Format: in vivo, ddY mice
# Test parameters: mouse, in vivo, po, female mice
Readout label: LD50

Compound: NNC(=O)CCNS(=O)(=O)c1ccccc1 [KH-125, N-benzenesulfonyl-β-alanine hydrazide]
Assay result: 1570 mg/kg

----------
# Assay protocol: Acute toxicity in rats (LD50)
# Assay type: in vivo, Wistar rats
# Test parameters: rat, in vivo, ip, male rats

Molecule: NNC(=O)CCNS(=O)(=O)c1ccccc1 [KH-125, N-benzenesulfonyl-β-alanine hydrazide]
LD50 / mg/kg: 2150

----------
# Assay protocol: Acute toxicity in mice (LD50)
# Format: in vivo, ddY mice
# Test parameters: mouse, in vivo, sc, male mice

Compound: NNC(=O)CCNS(=O)(=O)c1ccccc1 [KH-125, N-benzenesulfonyl-β-alanine hydrazide]
LD50, mg/kg: 1150

// data source = patent US3934036A
